- System: Escherichia (E.) coli (ATCC 11775)
- Assay method text: MIC measurement (broth microdilution)
- Format: cell-based
- Condition details: source ATCC, 18–24 h at 37 °C
Recorded MIC values for a group of compounds are listed next.
Parameter: MIC

>>> print(df.to_string())
                            molecule_smiles                           tested_on     value
0  N=C(N)c1cccc(C[C@H](NS(=O)(=O)c2cccc(-c3ccc(Cl)cc3Cl)c2)C(=O)N2CCC(CN)CC2)c1  Escherichia (E.) coli (ATCC 11775)  > 800 µM
1  N=C(N)c1cccc(C[C@H](NS(=O)(=O)c2cccc(-c3ccc(Cl)cc3Cl)c2)C(=O)N2CCC(CCN)CC2)c1  Escherichia (E.) coli (ATCC 11775)  > 800 µM
2  COc1ccc(-c2cccc(S(=O)(=O)N[C@@H](Cc3cccc(C(=N)N)c3)C(=O)N3CCC(N)CC3)c2)c(OC)c1  Escherichia (E.) coli (ATCC 11775)   >800 µM
3  N=C(N)c1cccc(C[C@H](NS(=O)(=O)c2cccc(-c3ccc(Cl)cc3Cl)c2)C(=O)N2CCC(N)CC2)c1  Escherichia (E.) coli (ATCC 11775)  > 800 µM
4  COc1ccc(-c2cccc(S(=O)(=O)N[C@@H](Cc3cccc(C(=N)N)c3)C(=O)N3CCC(NC(=O)NC(C)(C)C)CC3)c2)c(OC)c1  Escherichia (E.) coli (ATCC 11775)   >800 µM
